// data source = ChEMBL document CHEMBL3046278

- Test system: Botrytis cinerea
- PROCEDURE_SUMMARY: Antifungal activity against Botryotinia fuckeliana assessed as inhibition of mycelium growth at 50 ug/ml relative to control
- Assay type: functional
Threshold rule: inhibition at 50 µg/mL greater than or equal to 40% is condition met; below that, condition not met.

Some solved cases for reference:
1) CC(C)(C)c1ccc(/C(=C/C(=O)NCCc2ccc(O)cc2)c2ccnc(Cl)c2)cc1 : condition met
2) Cc1ccc(/C(=C/C(=O)NCCc2ccc(O)cc2)c2ccnc(Cl)c2)cc1 : condition not met
3) Cc1ccc(/C(=C/C(=O)NCCc2ccc(O)cc2)c2ccncc2)cc1C : condition met
4) COc1ccc(CCNC(=O)/C=C(/c2ccc(C(C)(C)C)cc2)c2ccnc(Cl)c2)cc1OC : condition met
5) Cc1ccc(/C(=C/C(=O)NCCc2ccc(O)cc2)c2ccncc2)cc1 : condition met

Hi team, for Cc1ccc(/C(=C/C(=O)NCCc2ccccc2)c2ccnc(Cl)c2)cc1C , is the recorded inhibition at 50 µg/mL at or above 40%?
condition met

Proceed to Cc1ccc(/C(=C/C(=O)NCCc2ccc(O)cc2)c2ccnc(Cl)c2)c(C)c1
condition not met

Proceed to COc1ccc(CCNC(=O)/C=C(\c2ccnc(Cl)c2)c2ccc(C)c(C)c2)cc1OC
condition not met

Proceed to Cc1ccc(/C(=C/C(=O)NCCc2ccccc2)c2ccncc2)cc1
condition met

Proceed to CCc1ccc(/C(=C/C(=O)NCCc2ccccc2)c2ccncc2)cc1
condition met
